pIC50 values for the compounds below.
MEASURED_TARGET: Tyrosine-protein kinase Lck (Homo sapiens, UniProt P06239)
Sequence (P06239 whole entry): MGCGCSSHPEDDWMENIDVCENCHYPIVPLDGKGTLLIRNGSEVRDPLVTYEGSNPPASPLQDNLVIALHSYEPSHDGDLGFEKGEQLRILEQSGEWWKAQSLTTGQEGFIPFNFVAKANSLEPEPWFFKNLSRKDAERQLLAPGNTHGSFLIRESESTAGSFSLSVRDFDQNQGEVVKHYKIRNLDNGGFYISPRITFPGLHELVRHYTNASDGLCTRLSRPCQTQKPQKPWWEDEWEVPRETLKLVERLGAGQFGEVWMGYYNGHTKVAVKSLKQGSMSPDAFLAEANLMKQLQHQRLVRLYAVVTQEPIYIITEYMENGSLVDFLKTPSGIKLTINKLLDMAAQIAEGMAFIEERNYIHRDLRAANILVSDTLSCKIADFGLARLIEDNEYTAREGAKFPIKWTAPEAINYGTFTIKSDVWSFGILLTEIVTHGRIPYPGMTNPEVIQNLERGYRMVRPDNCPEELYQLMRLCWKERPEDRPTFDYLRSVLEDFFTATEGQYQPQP
METHOD: In vitro inhibition of phosphorylation of an exogenous substrate by human p56 Lck tyrosine kinase expressed as a His-tagged protein in insect cells using a baculovirus expression system
In simple prose, pIC50 is minus the logarithm base ten of a concentration in moles per litre.

Here are 2 compounds together with their reported answers.
Looking for the measured pIC50 of Cc1cc(C)c(NC(=O)c2ccc3nc(NC(=O)C(C)C)sc3c2)c(C)c1 , can you help?
6.15

I have this compound here, CCC(C)(C)NC(=O)Nc1nc2ccc(C(=O)Nc3c(C)cccc3C)cc2s1 , and I need its recorded pIC50.
7.10

***
May I ask what pIC50 has been recorded for Cc1cccc(Cl)c1NC(=O)c1ccc2nc(NC(=O)NCc3ccc(F)cc3)sc2c1 ?
7.06

# pIC50 lookup, item Cc1cc(C)c(NC(=O)c2ccc3[nH]c(NC(=O)OC(C)(C)C)nc3c2)c(C)c1
5.49

Would you kindly share the measured pIC50 for Cc1cc(C)c(NC(=O)c2sc(NC(=O)OC(C)(C)C)nc2C)c(C)c1 ?
5.52

What pIC50 value was documented for this compound, Cc1cccc(C)c1NC(=O)c1ccc2nc(NC(=O)NC(C)(C)C)sc2c1 ?
7.00

What value of pIC50 has been recorded for this entry: Cc1cccc(C)c1NC(=O)c1ccc2nc(NC(=O)C(C)C)sc2c1
5.74

Which pIC50 reading was recorded for the compound Cc1cc(C)c(NC(=O)c2ccc3nc(NC(=O)NC4CC4)sc3c2)c(C)c1 ?
6.52

So what does the record say about pIC50 for Cc1cccc(Cl)c1NC(=O)c1ccc2nc(NC(=O)Nc3ccccn3)sc2c1 ?
5.70

----------
Below, each entry is listed alongside its reported IC50.
MEASURED_TARGET: Tyrosine-protein kinase Lck (Homo sapiens, UniProt P06239)
METHOD: In vitro inhibition of phosphorylation of an exogenous substrate by human p56 Lck tyrosine kinase expressed as a His-tagged protein in insect cells using a baculovirus expression system

Param item = Cc1cc(C)c(NC(=O)c2ccc3nc(NC(=O)c4ccccc4)sc3c2)c(C)c1 ; retrieve measured IC50.
> 12.5 µM

Any idea what its IC50 is? The molecule is Cc1ccc(C(C)C)c(C)c1NC(=O)c1ccc2nc(NC(=O)OC(C)(C)C)sc2c1
> 12.5 µM

Param item = Cc1cccc(Cl)c1NC(=O)c1ccc2nc(NC(=O)Nc3ncccn3)sc2c1 ; retrieve measured IC50.
> 3.13 µM

Then there is this molecule:
Quick one: IC50 of COc1cc(C(=O)Nc2c(C)cc(C)cc2C)nc2sc(NC(=O)OC(C)(C)C)nc12 ?
> 12.5 µM

----------
MEASURED_TARGET: UniProt:P06239
METHOD: In vitro inhibition of phosphorylation of an exogenous substrate by human p56 Lck tyrosine kinase expressed as a His-tagged protein in insect cells using a baculovirus expression system
ENDPOINT: log10 IC50 (log10 of the value in nM)
Please note: log10 values; quantity IC50; unit nM.

Answered cases to consult:
For the record Cc1cccc(C)c1NC(=O)c1ccc2nc(NC(=O)C3CC3C)sc2c1 (centres undefined) , what value of log10 IC50 is listed for UniProt:P06239?
1.04

Enter reported log10 IC50 observed with UniProt:P06239 for Cc1cc(C)c(NC(=O)c2ccc3nc(NC(=O)NCc4ccccc4)sc3c2)c(C)c1
3.24

Which measured log10 IC50 belongs to Cc1cccc(Cl)c1NC(=O)c1ccc2nc(NC(=O)NCCN(C)C)sc2c1 , tested on UniProt:P06239?
1.48

Could you share what log10 IC50 was measured for Cc1cc(Br)cc(C)c1NC(=O)c1ccc2nc(NC(=O)OC(C)(C)C)sc2c1 , tested on UniProt:P06239?
2.04

Reported log10 IC50 for UniProt:P06239, given Cc1cc(C)c(NC(=O)c2ccc3nc(N)oc3c2)c(C)c1 ?
4.36

Query the reported log10 IC50 for UniProt:P06239; item: Cc1cc(C)c(NC(=O)c2ccc3nc(NC(=O)C4CC4)sc3c2)c(C)c1
1.30

Could you share what log10 IC50 was measured for Cc1cccc(Cl)c1NC(=O)c1ccc2nc(NC(=O)C3CC3)sc2c1 , tested on UniProt:P06239?
0.95

Give the reported log10 IC50 for Cc1cccc(Cl)c1NC(=O)c1ccc2nc(NC(=O)NCCC3CCCN3C)sc2c1 (centres undefined) (system: UniProt:P06239).
0.85

For UniProt:P06239, provide log10 IC50 of Cc1cccc(C)c1NC(=O)c1ccc2nc(NC(=O)C3CC3)sc2c1 please.
1.18

API: value(readout=log10 IC50, system=UniProt:P06239) for record Cc1cc(C)c(NC(=O)c2cc(C)c3nc(NC(=O)OC(C)(C)C)sc3c2)c(C)c1
3.75

Next:
Give recorded log10 IC50 with UniProt:P06239 for the following compound: CCC(C)(C)NC(=O)Nc1nc2ccc(C(=O)Nc3c(C)cccc3Cl)cc2s1
1.74

Query for UniProt:P06239: what log10 IC50 does the record show for Cc1cccc(Cl)c1NC(=O)c1ccc2nc(NC(=O)OC(C)(C)C)sc2c1 ?
1.85

Please state recorded log10 IC50 (tested on UniProt:P06239) of CCC(NC(=O)Nc1nc2ccc(C(=O)Nc3c(C)cccc3Cl)cc2s1)c1ccccc1 (centres undefined)
1.28

Observed log10 IC50 on UniProt:P06239 for Cc1cc(C)c(NC(=O)c2ccc3nc(NC(=O)OC(C)(C)C)oc3c2)c(C)c1 , please.
3.86

Look up log10 IC50 with UniProt:P06239 for this compound: Cc1cccc(Cl)c1NC(=O)c1ccc2nc(NC(=O)Nc3ccc(F)cc3)sc2c1
2.09

Param readout = log10 IC50; param system = UniProt:P06239; param query = Cc1cc(C)c(NC(=O)c2ccc3nc(NC(=O)NC(C)(C)C)sc3c2)c(C)c1 ; response: value
1.85

----------
MEASURED_TARGET: Tyrosine-protein kinase Lck (Homo sapiens, UniProt P06239)
METHOD: In vitro inhibition of phosphorylation of an exogenous substrate by human p56 Lck tyrosine kinase expressed as a His-tagged protein in insect cells using a baculovirus expression system
ENDPOINT: IC50

// returns reported IC50 for input Cc1cc(C)c(NC(=O)c2ccc3nc(NC(=O)OC(C)(C)C)sc3n2)c(C)c1
> 12.5 µM

Further cases:
So what's the measured IC50 for this one? Cc1cc(Br)ccc1NC(=O)c1ccc2nc(NC(=O)OC(C)(C)C)sc2c1
> 12.5 µM

Form field: reported IC50 of Cc1cc(C)c(NC(=O)c2ccc3[nH]c(N)nc3c2)c(C)c1
> 12.5 µM

What value of IC50 has been recorded for this entry: Cc1cc(C)c(NC(=O)c2ccc3nc(NC(=O)OC(C)(C)C)sc3c2)c(C)c1Br
> 12.5 µM

----------
MEASURED_TARGET: Tyrosine-protein kinase Lck (Homo sapiens, UniProt P06239)
METHOD: In vitro inhibition of phosphorylation of an exogenous substrate by human p56 Lck tyrosine kinase expressed as a His-tagged protein in insect cells using a baculovirus expression system
pIC50: −log10 of the molar value.
Cut-off 6 on pIC50, inclusive. At or above means satisfied; below means not satisfied.

Observe how each entry below is paired with its result.
Record CC(=O)c1cccc(O)c1NC(=O)c1ccc2nc(NC(=O)OC(C)(C)C)sc2c1 ; criterion: pIC50 no lower than 6. Met?
not satisfied

Record Cc1cc(C)c(NC(=O)c2cccc3nc(NC(=O)OC(C)(C)C)sc23)c(C)c1 ; criterion: pIC50 no lower than 6. Met?
not satisfied

In plain terms: is recorded pIC50 at least 6 for CCCCNC(=O)Nc1nc2ccc(C(=O)Nc3c(C)cc(C)cc3C)cc2s1 ?
satisfied

Determine whether this compound has pIC50 no lower than 6: COC(=O)c1cc(C)c(NC(=O)c2ccc3nc(NC(=O)OC(C)(C)C)sc3c2)c(C)c1
not satisfied

Item Cc1cc(CO)cc(C)c1NC(=O)c1ccc2nc(NC(=O)OC(C)(C)C)sc2c1 with pIC50 of 6 or above?
satisfied

Hi team, for Cc1cc(C)c(NC(=O)c2ccc3nc(N)sc3n2)c(C)c1 , is the recorded pIC50 at or above 6?
not satisfied

Is the recorded value of pIC50 equal to or greater than 6 for this compound? COc1cccc(OC)c1NC(=O)c1ccc2nc(NC(=O)OC(C)(C)C)sc2c1
not satisfied

Please check the record Cc1cc(C)c(NC(=O)c2ccc3nc(NC(=O)OC(C)(C)C)sc3c2Cl)c(C)c1 and state if its pIC50 is at or above 6.
not satisfied

Others:
Is the recorded value of pIC50 equal to or greater than 6 for this compound? Cc1cccc(CCO)c1NC(=O)c1ccc2nc(NC(=O)OC(C)(C)C)sc2c1
not satisfied

Say whether Cc1cc(C)c(NC(=O)c2cccc3sc(NC(=O)OC(C)(C)C)nc23)c(C)c1 shows pIC50 of 6 or more.
not satisfied

Reported pIC50 at or above 6? Cc1cc(C)c(NC(=O)c2cc3sc(NC(=O)OC(C)(C)C)nc3cc2Cl)c(C)c1
not satisfied

Can Cc1cccc(C)c1NC(=O)c1ccc2nc(NC(=O)OC(C)(C)C)sc2c1 be said to have pIC50 at or above 6?
satisfied

Item Cc1cc(C)c(NC(=O)c2ccc3nc(NC(=O)OC(C)(C)C)sc3c2)c(Br)c1C with pIC50 of 6 or above?
not satisfied

Does the reported pIC50 for Cc1cc(C)c(NC(=O)c2ccc3nc(N)sc3c2)c(C)c1 fall at or above the 6 mark?
not satisfied
